Experiment: Viability Counterscreen for CMV-Luciferase Assay of Inhibitors of ATXN expression; further: nearly all actives have a fitted effect of over 55% in size
Details: HEK-293 CMV-luciferase cells viability, protease fluorescence, 24 h; series mostly up to 57.5 µM
The campaign covered roughly 2,100 compounds. About 320 (15%) were called active. Roughly 52% stayed inconclusive and do not appear here. The call rests on the fitted dose curve; in most records, active means well fitted cell-killing curve with a large enough effect; inconclusive means small, poorly fitted or top-dose-only effect, or effect the other way; inactive means flat fitted curve, though single readings scatter. This is one part of the list.
Lab note: assign the record to one of Y (active), N (inactive)

Known results for compounds:
COC(=O)c1nc(-c2ccc3c(n2)C(=O)C(N)=C(OC)C3=O)c(N)c(-c2ccc(OC)c(OC)c2O)c1C	Y
CCCCN=C[C@]12CCC(O)CC1(O)CCC1[C@@H]2CC[C@]2(C)[C@H](C3C=CC(=O)O3)CCC12O (stereo partly specified)	Y
C[C@H]1[C@@H](OS(=O)(=O)O)C[C@@H]2C[C@H]([C@@H](O)c3cc(=O)[nH]c(=O)[nH]3)NC3=NC[C@H]1N32	Y
O=C(NN=Cc1ccc(N(CCCl)CCCl)cc1)c1cc(=O)[nH]c(=O)[nH]1	N
CC12CCC3C(CCC4(O)CC(O)CCC34C=NO)C1(O)CCC2C1=COC(=O)C1 (stereo unspecified)	Y

Attention now shifts to the item below.
Please let me know the test result on file for CC1OC(OC2C(O)CC(OC3C(O)CC(OC4CCC5(C)C(CCC6C5CCC5(C)C(C7=CC(=O)OC7)C(O)CC65O)C4)OC3C)OC2C)CC(O)C1O (stereo unspecified) . Y

---

Assay: Viability Counterscreen for CMV-Luciferase Assay of Inhibitors of ATXN expression; further: nearly all actives have a fitted effect of over 55% in size
Details: HEK-293 CMV-luciferase cells viability, protease fluorescence, 24 h; series mostly up to 57.5 µM
The campaign covered roughly 2,100 compounds. About 320 (15%) were called active. Inconclusive results (about 52%) are left out. The call rests on the fitted dose curve; in most records, active means well fitted cell-killing curve with a large enough effect; inconclusive means small, poorly fitted or top-dose-only effect, or effect the other way; inactive means flat fitted curve, though single readings scatter. The list shows a part of the results.
Choose one outcome from this list and give only that: Y (active), N (inactive)

Examples with answers:
C[C@]12CCC3C(CCC4=CC(O)CC[C@@]43/C=N/O)C1(O)CCC2C1=CC(=O)OC1 (stereo not given in full)	Y
CCC(C)N1C(=O)/C(=C\c2cnc(N(C)C)nc2)C(=O)NC1=S (stereo not given)	N
O=[N+]([O-])c1oc2ccc3ccccc3c2c1CCO	Y
C[C@@H]1C[C@@H]([C@H](O)CC2CC(=O)NC(=O)C2)C(=O)[C@@H](C)C1	Y

# next compound below
How was O=C(CSC1c2ccccc2-c2ccccc21)N/N=C/c1ccccc1O classified in this test? Y
